Where do the numbers come from? From patent US12012392B2.

assay: PK protocol (intravenous and oral administration); type: in vivo, male Sprague Dawley rats; settings: male, Sprague Dawley, plasma; rat, intravenous, dose 1 mg/kg
propertyLabel: half-life (h)

>  <molecule>
O=C(Nc1c2c(cc3c1CCC3)CCC2)NS(=O)(=O)c1ccn(C2CCOC2)n1 (centres unmarked)

>  <unitInfo>
h

>  <half-life>
3.4

$$$$
>  <molecule>
Cn1nc(S(=O)(=O)NC(=O)Nc2c3c(cc4c2CCC4)CCC3)cc1C1(O)COC1

>  <unitInfo>
h

>  <half-life>
6.6

$$$$
>  <molecule>
CC(C)(O)c1coc(S(=O)(=O)NC(=O)Nc2c3c(cc4c2CCC4)CCC3)c1 [MCC950, reference compound]

>  <unitInfo>
h

>  <half-life>
1.2

$$$$
>  <molecule>
C[C@H](CO)n1ccc(S(=O)(=O)NC(=O)Nc2c3c(cc4c2CCC4)CCC3)n1

>  <unitInfo>
h

>  <half-life>
3.6

$$$$

P = CC(O)C(C)n1ccc(S(=O)(=O)NC(=O)Nc2c3c(cc4c2CCC4)CCC3)n1 (racemic)
Q = COCCn1ccc(S(=O)(=O)NC(=O)Nc2c3c(cc4c2CCC4)CCC3)n1
R = CN(CCO)Cc1cc(S(=O)(=O)NC(=O)Nc2c3c(cc4c2CCC4)CCC3)nn1C
S = COC1(c2cc(S(=O)(=O)NC(=O)Nc3c4c(cc5c3CCC5)CCC4)nn2C(C)C)COC1
Query string: Sequence the entries by half-life, beginning with the highest number. List labels; respect the requested ordering.
Result string: R, P, S, Q
(R: 14.2 h, P: 2.6 h, S: 0.7 h, Q: 0.3 h)

----------
Listed here are molecules together with their documented IC50.
Target: NLRP3 (Homo sapiens, UniProt Q96P20)
Sequence (Q96P20 whole entry): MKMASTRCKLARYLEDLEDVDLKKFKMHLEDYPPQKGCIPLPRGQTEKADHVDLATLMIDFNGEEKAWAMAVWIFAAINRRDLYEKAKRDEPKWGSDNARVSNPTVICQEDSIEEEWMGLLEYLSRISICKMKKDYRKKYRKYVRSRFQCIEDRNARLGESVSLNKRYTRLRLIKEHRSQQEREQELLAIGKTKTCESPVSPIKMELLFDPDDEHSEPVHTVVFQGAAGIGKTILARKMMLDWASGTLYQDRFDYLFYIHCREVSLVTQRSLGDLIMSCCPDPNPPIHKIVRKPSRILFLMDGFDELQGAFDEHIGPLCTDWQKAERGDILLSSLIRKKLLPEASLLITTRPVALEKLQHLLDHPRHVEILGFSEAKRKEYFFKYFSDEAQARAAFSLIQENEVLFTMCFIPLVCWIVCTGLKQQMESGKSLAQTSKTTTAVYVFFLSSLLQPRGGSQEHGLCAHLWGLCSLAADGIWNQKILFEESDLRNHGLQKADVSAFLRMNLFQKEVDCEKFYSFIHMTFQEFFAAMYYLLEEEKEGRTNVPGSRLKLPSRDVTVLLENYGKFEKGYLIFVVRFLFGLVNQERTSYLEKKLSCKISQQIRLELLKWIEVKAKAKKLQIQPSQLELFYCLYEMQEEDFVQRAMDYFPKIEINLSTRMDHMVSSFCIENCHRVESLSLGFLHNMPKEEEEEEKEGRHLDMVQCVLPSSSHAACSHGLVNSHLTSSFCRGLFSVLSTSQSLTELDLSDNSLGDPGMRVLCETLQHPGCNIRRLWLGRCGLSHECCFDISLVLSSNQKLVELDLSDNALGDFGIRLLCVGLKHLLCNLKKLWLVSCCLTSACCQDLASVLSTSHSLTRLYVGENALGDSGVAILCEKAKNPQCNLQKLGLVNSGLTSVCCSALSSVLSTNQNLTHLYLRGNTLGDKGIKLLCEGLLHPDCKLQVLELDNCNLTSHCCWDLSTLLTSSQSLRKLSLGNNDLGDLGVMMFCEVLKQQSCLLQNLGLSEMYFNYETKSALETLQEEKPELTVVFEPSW
Experiment: THP-1 cells pyroptosis assay
Format: cell-based
Set-up: Seed THP-1 cells (25,000 cells/well) containing 1.0 μg/ml LPS; host or cells: THP-1 cells, LPS-primed, nigericin-stimulated
Details: LPS 1 μg/ml, nigericin 5 μM, resazurin read-out
Protocol: THP-1 cells (ATCC #TIB-202) were grown in RPMI containing L-glutamine (Gibco #11835) supplemented with 1 mM sodium pyruvate (Sigma #S8636) and penicillin (100 units/ml)/streptomycin (0.1 mg/ml) (Sigma #P4333) in 10% Fetal Bovine Serum (FBS) (Sigma #F0804). […] The cells were then counted and viability (>90%) checked by Trypan blue (Sigma #T8154). […] The following method step-by-step assay was followed for compound screening. • 1. […] Plates were read in an Envision reader at Ex 560 nm and Em 590 nm • 9. […]

Previously resolved entries follow.
>  <molecule>
COc1cc(-c2ccc3c(c2NC(=O)NS(=O)(=O)c2ccn(C4CCOC4)n2)CCC3)ccn1 (stereo not shown)

>  <experimentalValue>
40 to 160 nM

$$$$
>  <molecule>
Cn1nc(S(=O)(=O)NC(=O)Nc2c3c(cc4c2CCC4)CCC3)cc1C(=O)N1CCC(O)CC1

>  <experimentalValue>
2560 to 10000 nM

$$$$
>  <molecule>
CCOC1(c2cc(S(=O)(=O)NC(=O)Nc3c4c(cc5c3CCC5)CCC4)nn2C)COC1

>  <experimentalValue>
40 to 160 nM

$$$$
>  <molecule>
O=C(Nc1c2c(cc3c1CCC3)CCC2)NS(=O)(=O)c1ccn(CC2CCCO2)n1 (stereo not shown) [Example 3]

>  <experimentalValue>
40 to 160 nM

$$$$
>  <molecule>
COCCN(CCOC)C(=O)c1cc(S(=O)(=O)NC(=O)Nc2c(C(C)C)cccc2C(C)C)nn1C

>  <experimentalValue>
2560 to 10000 nM

$$$$

Query string: Request the reported IC50 associated with `COc1cc(-c2ccc3c(c2NC(=O)NS(=O)(=O)c2cc(C4(OC)COC4)n(C)n2)CCC3)ccn1`
Result string: < 40 nM

Query string: Request the reported IC50 associated with O=C(Nc1c2c(cc3c1CCC3)CCC2)NS(=O)(=O)c1ccn(C2CCCC2O)n1 (racemic)
Result string: 40 to 160 nM
